Measured values drawn from ChEMBL document CHEMBL4823320 for this set.

This document collects pIC50 values reported for Nonstructural protein 3 (Zika virus).
Numbers only, as −log10 of the molar value.

Sample records with pIC50:
- Cc1ccc(S(=O)(=O)N[C@@H](C)C(=O)Nc2nc3cc(O)c(O)cc3s2)cc1: 5.19
- O=C(Nc1nc2cc(O)c(O)cc2s1)c1ccc(-c2ccccc2)cc1: 5.91

Below is a list of compounds. For each, state its recorded pIC50.
1. O=C(Nc1nc2cc(O)c(O)cc2s1)c1ccc(I)cc1
2. O=C(C[C@H](NC(=O)c1ccccc1)C(=O)Nc1nc2cc(O)c(O)cc2s1)Nc1ccccc1
3. O=[N+]([O-])c1ccc2nc(NC(=S)Nc3ccc(I)cc3)sc2c1
4. O=C(Nc1ccccc1)c1cc2cc(O)c(O)cc2[nH]1
5. O=C(Nc1ccccc1)[C@@H]1CCCN1C(=O)c1cc2cc(O)c(O)cc2o1
6. O=C(Nc1ccccc1)c1cc2cc(O)c(O)cc2o1
7. O=C(Nc1ccccc1)[C@@H]1CCCN1C(=O)c1nc2cc(O)c(O)cc2s1

1: 6.17; 2: 5.26; 3: 5.19; 4: 5.46; 5: 5.61; 6: 5.98; 7: 5.40

Below is a list of compounds. For each, state its recorded pIC50.
1. O=C(Nc1ccc(I)cc1)c1nc2cc(O)c(O)cc2s1
2. O=C(Nc1ccccc1)[C@@H]1CCCN1C(=O)c1cc2cc(O)c(O)cc2s1

1: 5.89; 2: 5.46
